Test system: TRPC4 (mouse), co-expressed with 5HT1a in HEK293
method-notes: enhancement of serotonin-evoked TRPC4 response – cell-based, second counter screen, HEK293 TRPC4/5HT1a, Fluo-4, counter-screen for TRPC4 potentiator project, confirmation (AID 434979)
condition-context: Fluo-4 calcium flux, at 10 µM, serotonin added at its EC20 dose
The source made the active and inactive calls.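 Rule for the calls: active = signal rise over 3 SD above mean of control wells given weak agonist, in both repeats and first screen; inactive = the rest.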
Classes to choose from: active, inactive

Cc1ccc(NC(=S)N(CCCN(C)C)Cc2cc3cc4c(cc3[nH]c2=O)OCO4)c(C)c1 = inactive

# input for lookup
Look up the recorded call for CN(C)C(CNC(=O)Nc1cccc(Cl)c1)c1cccnc1 (stereo not given) in this test.
inactive

----------
System: TRPC4 (transient receptor potential cation channel C4 beta), mouse
method-notes: potentiation of DAMGO EC20 TRPC4 response – cell-based, second round, Fluo-4, HEK293 TRPC4beta/mu-opioid, 1 µM, confirmation (AID 2554)
condition-context: DAMGO EC20, Fluo-4 calcium flux, at 1 µM; stronger effect = higher value
Active and inactive are the calls of the source.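 The calls were made as follows: active = primary screen hit whose fluorescence ratio, in both repeats, exceeds the weak agonist control mean by 3 SD; inactive = the rest.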
quantity-name: potentiation

CN(C)CCNc1ccc(Cl)cc1[N+](=O)[O-] = inactive
CC(Sc1nc2sc3c(c2c(=O)n1-c1ccccc1)CCCC3)C(=O)O (stereo not drawn) = inactive
CCCSc1nc(N)nc(-c2cccs2)c1C#N = inactive

----------
target-system: Short transient receptor potential channel 4 (Mus musculus)
method-notes: calcium flux activators in TRPC4/5HT1a cells, counter-screen for TRPC4 activator project, cell-based, second counter screen, HEK293 TRPC4/5HT1a, Fluo-4 (AID 434977);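 for activation: plate controls were assay buffer for no effect and maximal serotonin response for full effect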
condition-context: Fluo-4 calcium flux, at 10 µM; stronger effect = higher value
Calls of active or inactive are those of the source.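 The calls were made as follows: active = calcium signal rise above buffer-control mean plus 5 SD in both duplicates, and also a hit in the primary screen; inactive = the rest.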
quantity-name: activation

Worked cases, activation given:
Cc1cccn2c(CNCCc3ccccn3)c(C(=O)N3CCOCC3)nc12 = 57.2% (active)
CCCC1(c2ccccc2)NC(=O)N(CC(=O)c2[nH]c(C)c(C(=O)OCC)c2C)C1=O (stereo not given) = inactive
c1ccc(CN2CCN(c3nc4ccccc4s3)CC2)cc1 = inactive
COc1cccc(Cn2c(Oc3ccccc3)nc3c2c(=O)n(C)c(=O)n3C)c1 = inactive

Given the compound CC(Nc1nc(N2CCNCC2)nc2ccccc12)c1ccccc1 (stereo not given) , what is its reported activation?
16.7% (active)

----------
target-system: Potassium voltage-gated channel subfamily KQT member 2 (Rattus norvegicus) (UniProt O88943)
Sequence (O88943 whole entry, looked up): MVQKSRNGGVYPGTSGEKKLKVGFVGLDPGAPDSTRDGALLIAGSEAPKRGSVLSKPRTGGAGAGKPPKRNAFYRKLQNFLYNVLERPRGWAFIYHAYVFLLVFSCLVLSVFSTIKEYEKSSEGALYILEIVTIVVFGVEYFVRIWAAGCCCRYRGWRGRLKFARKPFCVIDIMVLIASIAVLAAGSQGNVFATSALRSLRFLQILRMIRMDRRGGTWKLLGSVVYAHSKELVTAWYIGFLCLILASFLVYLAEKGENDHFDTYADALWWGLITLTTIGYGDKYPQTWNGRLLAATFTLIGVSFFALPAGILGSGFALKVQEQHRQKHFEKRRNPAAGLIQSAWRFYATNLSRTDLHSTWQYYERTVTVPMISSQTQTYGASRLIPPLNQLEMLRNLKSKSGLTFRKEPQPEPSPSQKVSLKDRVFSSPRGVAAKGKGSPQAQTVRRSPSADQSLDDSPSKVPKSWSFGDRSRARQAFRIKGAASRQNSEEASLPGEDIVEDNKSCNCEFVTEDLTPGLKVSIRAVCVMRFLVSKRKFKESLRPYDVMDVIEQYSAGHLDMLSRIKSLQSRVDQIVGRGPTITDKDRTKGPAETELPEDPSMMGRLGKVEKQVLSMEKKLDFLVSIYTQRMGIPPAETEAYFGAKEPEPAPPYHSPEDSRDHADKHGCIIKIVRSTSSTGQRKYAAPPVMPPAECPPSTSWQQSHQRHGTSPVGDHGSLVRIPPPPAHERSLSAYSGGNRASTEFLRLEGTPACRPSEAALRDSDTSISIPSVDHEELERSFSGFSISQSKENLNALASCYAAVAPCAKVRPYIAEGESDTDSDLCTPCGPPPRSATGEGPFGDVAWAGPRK
method-notes: KCNQ2 potassium channel activity enhancers – cell-based, CHO, FluxOR thallium flux, duplicate, confirmation (AID 2287);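 note: peak minus minimum thallium fluorescence divided by baseline after K/Tl stimulus; 0% = vehicle mean plus 3 SD and 100% = vehicle minus unstimulated blank difference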
condition-context: CHO-KCNQ2 cells, FluxOR thallium flux fluorescence; at 10 µM; stronger effect = higher value
The other results are listed elsewhere or left out.
quantity-name: potentiation, less the hit threshold (%)
Give the value, in units of %, as a plain number.

Worked cases, potentiation, less the hit threshold given:
CC(C)Cc1nnc(NC(=O)CCc2ccccc2)s1 = -14.9
COc1ccc(NC(=O)/C(Cl)=C(/Cl)S(=O)Cc2ccc(C)cc2)cn1 (stereo not drawn) = 0.8

// below: potentiation, less the hit threshold requested for another compound
Given the compound O=C(Nc1ccc(Oc2ccccc2)cc1)c1ccco1 , what is its reported potentiation, less the hit threshold?
37.7

----------
Tested on: TRPC4 beta (transient receptor potential cation channel C4), mouse
method-notes: TRPC4 cation channel opening, retest – cell-based, Fluo4 calcium, HEK293 TRPC4beta/mu-opioid, duplicates, 10 µM, confirmation (AID 2426)
condition-context: Fluo4 calcium fluorescence, at 10 µM
Calls of active or inactive are those of the source.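 How the source made its calls: active means fluorescence ratio normalized to control raised more than 50% in primary screen plus both repeat runs; inactive means the rest.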
Classes to choose from: true for active, false for inactive

Reference set (5 entries):
c1ccn2cc(C34CC5CC(CC(C5)C3)C4)nc2c1 = false
Clc1ccc(CN2C3=NCCN3c3ccccc32)cc1Cl = false
CCc1ccc2nc3nc(C)cc(C)c3c(N)c2c1 = false
Cc1oc(-c2ccoc2)nc1CN(Cc1ccccc1)CC1CC1 = false
COc1ccc(CN2CCC(N(CCc3ccccc3)Cc3ccccc3)CC2)c(OC)c1 = true

Look up the recorded call for Oc1ccc(Nc2nc(N3CCCC3)c3ccccc3n2)cc1 in this test.
false

Look up the recorded call for CCN(C(=O)c1cc2c(s1)-c1ccccc1OC2)c1cc(OC)ccc1OC in this test.
false

Look up the recorded call for Cc1n[nH]c(C)c1CCCCOc1ccccc1F in this test.
false

----------
Test system: TRPC4 (mouse), co-expressed with 5HT1a in HEK293
method-notes: enhancement of serotonin-evoked TRPC4 response – cell-based, second counter screen, HEK293 TRPC4/5HT1a, Fluo-4, counter-screen for TRPC4 potentiator project, confirmation (AID 434979)
condition-context: Fluo-4 calcium flux, at 10 µM, serotonin added at its EC20 dose
Active and inactive are the calls of the source.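 Rule for the calls: active = signal rise over 3 SD above mean of control wells given weak agonist, in both repeats and first screen; inactive = the rest.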
Classes to choose from: active, inactive

Reference set (6 entries):
Clc1ccccc1CSc1nc2ccncc2[nH]1 = inactive
CC(C)c1ccccc1NC(=S)NN(Cc1ccccc1)c1ccccc1 = active
Cc1ccc(NS(=O)(=O)c2cc(N)ccc2Cl)c(C)c1 = inactive
C/C=C(/C)C(=O)O[C@@H]1c2cc(OC)c(OC)c(OC)c2-c2c(cc3c(c2OC)OCO3)C[C@H](C)[C@]1(C)O = inactive
CC(C)CN(CC(C)C)c1nc(N)c(C#N)c(CC#N)c1C#N = inactive
Cc1noc(C)c1CCC(=O)NC1CCCN(Cc2ccc(CC(C)C)cc2)C1 (centres undefined) = inactive

Look up the recorded call for O=C(Cn1c(NCCCO)nc2ccccc21)c1ccc(Br)cc1 in this test.
inactive

Look up the recorded call for COc1ccc(C(CNC(=O)c2ccccc2SC)N(C)C)cc1 (centres undefined) in this test.
inactive

Look up the recorded call for CN(C)c1ccc(C(CNC(=O)Cc2cccc3ccccc23)N(C)C)cc1 (centres undefined) in this test.
inactive

Look up the recorded call for CC12CCCCN1CCCc1c2[nH]c2ccccc12 (centres undefined) in this test.
inactive

Look up the recorded call for CSc1nnc(Cc2sc(-c3ccccc3)nc2-c2ccccc2)o1 in this test.
active

Look up the recorded call for COc1cccc(N(C(=O)c2snc(C(N)=O)c2N)C(C(=O)NCC2CCCO2)c2ccc3ncccc3c2)c1 (centres undefined) in this test.
inactive

----------
target-system: Short transient receptor potential channel 4 (Mus musculus)
method-notes: calcium flux activators in TRPC4/5HT1a cells, counter-screen for TRPC4 activator project, cell-based, second counter screen, HEK293 TRPC4/5HT1a, Fluo-4 (AID 434977);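 for activation: plate controls were assay buffer for no effect and maximal serotonin response for full effect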
condition-context: Fluo-4 calcium flux, at 10 µM; stronger effect = higher value
Active and inactive are the calls of the source.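 Rule for the calls: active = calcium signal rise above buffer-control mean plus 5 SD in both duplicates, and also a hit in the primary screen; inactive = the rest.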
quantity-name: activation

Cc1[nH]nc(-c2ccc(O)cc2O)c1-c1ccc(Cl)cc1 = inactive
Oc1ccccc1Nc1nc(NCc2ccco2)c2ccccc2n1 = inactive
Cc1ccccc1Cn1c(CN2CCc3ccccc3C2)nc2c1c(=O)n(C)c(=O)n2C = inactive

----------
method-notes: serotonin-gated TRPC4 signal block – cell-based, second counter screen, HEK293 TRPC4/5HT1a, Fluo-4, counter-screen for TRPC4 inhibitor project, confirmation (AID 434978)
condition-context: Fluo-4 calcium flux, at 10 µM, serotonin added to trigger calcium flux
Active and inactive are the calls of the source.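 Rule for the calls: active = primary screen active whose calcium signal fell more than 3 SD beyond the full-serotonin control mean in both duplicate plates; inactive = the rest.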
Classes to choose from: T for active, F for inactive

Reference set (2 entries):
CCCN1CCN(C(=O)Cn2c(=O)oc3cc(S(=O)(=O)NCc4ccccc4)ccc32)CC1 = F
Cc1ccc(Nc2cc(C)nc3ccc(C)cc23)cc1 = T

Look up the recorded call for N#Cc1cccc2c1-c1ccccc1/C2=N/NC(N)=O in this test.
T

Look up the recorded call for COc1ccc(C(=O)c2no[n+]([O-])c2C(=O)c2ccc(OC)cc2)cc1 in this test.
F

Look up the recorded call for CC(=O)N1N=C(c2c(-c3ccccc3)c3cc(C)ccc3[nH]c2=O)CC1c1ccco1 (configuration not stated) in this test.
F

Look up the recorded call for O=C(CN1CCN(Cc2ccccc2Cl)CC1)N=Nc1c(O)[nH]c2ccccc12 in this test.
F

Look up the recorded call for O=[N+]([O-])c1ccc(N2CCCC2)nc1N1CCCC1 in this test.
F

Look up the recorded call for OCC1(CCc2ccccc2)CCN(Cc2ccc3nsnc3c2)CC1 in this test.
F

Look up the recorded call for O=C(N/N=C/c1cc2c(cc1Br)OCO2)c1cc2ccccc2o1 in this test.
F

Look up the recorded call for COc1cc2c(cc1OC)C(C)N(CCc1ccc(Cl)cc1)CC2 (configuration not stated) in this test.
F

Look up the recorded call for Cc1c(CCOC(=O)CC23CC4CC(CC(C4)C2)C3)sc[n+]1Cc1ccccc1 in this test.
T

Look up the recorded call for Cc1cccc(OCCC(=O)NCC(c2ccccc2)N(C)C)c1 (configuration not stated) in this test.
F

Look up the recorded call for CC(C)Oc1cccc(C(=O)C2CCCN(Cc3cnn(C(C)C)c3)C2)c1 (configuration not stated) in this test.
F

Look up the recorded call for COc1ccc(C2CC(=O)c3cnc(N4CCN(Cc5ccccc5)CC4)nc3C2)cc1 (configuration not stated) in this test.
F

Look up the recorded call for CCCN1CN(Cc2ccco2)c2nc3ccccc3n2C1 in this test.
T

Look up the recorded call for CCOc1ccc2ccccc2c1CNCCc1ccc(S(N)(=O)=O)cc1 in this test.
T

Look up the recorded call for CN1CCN(CC#CCn2c3ccccc3c3ccccc32)CC1 in this test.
F

Look up the recorded call for COc1ccc(Cc2noc(CN(C)CC3CCN(Cc4ccccc4)CC3)n2)cc1OC in this test.
F

Look up the recorded call for Cc1ccc(C[n+]2cccc(-c3ccccc3)c2)c(C)c1 in this test.
F

Look up the recorded call for O=C(/C=C/c1ccccc1Cl)N(c1ccccn1)C1CCCCC1 in this test.
F

Look up the recorded call for O=c1c2ccccc2nc(SCc2nc3ccccc3s2)n1CCCO in this test.
F

Look up the recorded call for Cc1oc2c(c1C(=O)c1ccccc1)C(=O)C(=O)c1ccccc1-2 in this test.
T

Hello, the source for this data is PubChem BioAssay, in case you need it.
